experimental_readout: melting point

Please review the following examples before continuing.
>>> print(df.to_string())
                                   molecule    test_result
0  O=C(O)c1ccc(C(=O)O)c(-c2nc3ccccc3[nH]2)c1  312 to 314 °C
1  CCOC(=O)c1sc(NC(=O)c2cc(C(F)(F)F)cc(C(F)(F)F)c2)nc1C(F)(F)C(F)(F)F  154 to 155 °C
2  CNC(=O)CC1CN=C(c2cc3cc(Oc4ccc(COC)nc4)cc(OC)c3[nH]2)S1 (stereo not given)  102 to 104 °C
3                CN1CCNC1=Nc1ccccc1N1CCOCC1         156 °C
4  CC(C)C1(Br)Cc2cc(OCC(=O)O)c(Cl)c(Cl)c2C1=O (stereo not given)  150 to 153 °C
5             Cc1cccc2c(N3CCSCC3)nc(Cl)cc12  134 to 136 °C
6  Cc1cc(C(N)=O)ncc1C(c1c(F)ccc(F)c1F)S(=O)(=O)CCC(F)F (stereo not given)         192 °C
7  COC(=O)CSCc1sccc1S(=O)(=O)N(C)c1cccc2cc(-c3nccs3)[nH]c12         126 °C

For each entry beneath this line, provide reported melting point.
1. CCOc1c(C(=O)O)sc2ccc(OC)cc12
2. COC(=O)CCc1cc(C(C)(C)C)c(OP(Cl)c2ccccc2)c(C(C)(C)C)c1 (stereo not given)

Result ::
162 to 164 °C
86 to 88 °C

###

What melting point was measured for each of the following?

                                   compound  experimental_readout  test_result
0  CCC(=O)Nc1ccc2c(c1)C(=O)c1cc(NC(=O)CC)ccc1C2=O         melting point       291 °C

For each entry beneath this line, provide reported melting point.
1. CCNc1c(C#N)cnn1-c1ccc(Cl)c(Cl)c1Cl
2. CCCCc1oc2ccccc2c1-c1ccc(-c2ccc(O)cc2)cc1
3. CN(C)c1ccc2nc[nH]c(=O)c2c1
4. COC1=C(OC)C(=O)C2=C(CC(CCCCCCCCOc3ccc(Cl)cc3)C2)C1=O
5. Cc1cc(-c2cccc(C(F)(F)F)c2)c2nc(OC(F)F)cnc2c1
6. COc1ccc(F)cc1C(C)(C)c1cc(Cl)ccc1O
7. CCCn1c(N)c(NC(=O)C2(NC(=O)C(F)(F)F)CCCC2)c(=O)n(CCC)c1=O

Result ::
1: 145 °C; 2: 128 to 129 °C; 3: 233 to 236 °C; 4: 64 to 66 °C; 5: 103 to 104 °C; 6: 97 °C; 7: 203 to 204 °C

###

What melting point was measured for each of the following?

Please review the following examples before continuing.
In [3]: df
Out[3]:
                                   compound    test_result
0  N#Cc1c(C(N)=O)c2n(c1C1CC1)CCN(S(=O)(=O)c1ccc(C(F)(F)F)cc1)C2  253 to 256 °C
1  N#Cc1c(N2CCN(CCCCCC(=O)N3Cc4ccccc4C3)CC2)cccc1C(F)(F)F         160 °C
2  Cc1cc(C2OC(C)(C)N=C2c2ccccc2)cc(C)c1N(C)C (stereo not given)    91 to 92 °C
3  CCOC(=O)C(C)Oc1ccc(N(C)c2nc3cc(Cl)ccc3o2)cc1 (stereo not given)  68 to 68.6 °C

Now look at this one.
Query :: Tell me melting point reported for COc1nc(N)nc(-c2ccc(S(C)=O)cc2)c1-c1ccc(=O)n(C(C)C)n1 (stereo not given)
Result :: 127 to 130 °C
